- Tested on: Mus musculus
- PROTOCOL TEXT: Biodistribution was measured in mice spleen 30 minutes after intravenous injection of [125I]-labeled styrylbenzene.
- Assay type: ADME, organism-based
- COND: in vivo, 0.5 h
MEASUREMENT NAME: Dose/organ
Output should be the measured figure followed by the unit it is expressed in.

Batch lookup, Dose/organ per entry.
1. CN1CCN(c2ccc(-c3nc4ccc(I)cc4s3)cc2)CC1
2. O=C(O)c1cc(/C=C/c2ccc(/C=C/c3ccc(O)c(C(=O)O)c3)c(I)c2)ccc1O
3. CN(C)c1ccc(-c2nc3ccc(I)cc3s2)cc1
4. COc1ccc(/C=C/c2ccc(/C=C/c3ccc(OC)c(C(=O)O)c3)c(I)c2)cc1C(=O)O

0.87%
0.13%
0.2%
0.07%

---

- System: Mus musculus
- PROTOCOL TEXT: Biodistribution was measured in mice blood 60 minutes after intravenous injection of [125I]-labeled styrylbenzene.
- Assay type: ADME, organism-based
- COND: in vivo, 1 h
MEASUREMENT NAME: Dose/organ (%)
Give bare numbers, in %.

1) O=C(O)c1cc(/C=C/c2ccc(/C=C/c3ccc(O)c(C(=O)O)c3)c(I)c2)ccc1O :: 2.59
2) CN1CCN(c2ccc(-c3nc4ccc(I)cc4s3)cc2)CC1 :: 4.16
3) COc1ccc(/C=C/c2ccc(/C=C/c3ccc(OC)c(C(=O)O)c3)c(I)c2)cc1C(=O)O :: 2.17

Kindly review the next compound as well.
Given item CN(C)c1ccc(-c2nc3ccc(I)cc3s2)cc1 , the value recorded as its Dose/organ is 3.79

---

What pKi was measured for each of the following?
- TARGET SYSTEM: Amyloid-beta precursor protein (Homo sapiens)
- Sequence (P05067 whole entry): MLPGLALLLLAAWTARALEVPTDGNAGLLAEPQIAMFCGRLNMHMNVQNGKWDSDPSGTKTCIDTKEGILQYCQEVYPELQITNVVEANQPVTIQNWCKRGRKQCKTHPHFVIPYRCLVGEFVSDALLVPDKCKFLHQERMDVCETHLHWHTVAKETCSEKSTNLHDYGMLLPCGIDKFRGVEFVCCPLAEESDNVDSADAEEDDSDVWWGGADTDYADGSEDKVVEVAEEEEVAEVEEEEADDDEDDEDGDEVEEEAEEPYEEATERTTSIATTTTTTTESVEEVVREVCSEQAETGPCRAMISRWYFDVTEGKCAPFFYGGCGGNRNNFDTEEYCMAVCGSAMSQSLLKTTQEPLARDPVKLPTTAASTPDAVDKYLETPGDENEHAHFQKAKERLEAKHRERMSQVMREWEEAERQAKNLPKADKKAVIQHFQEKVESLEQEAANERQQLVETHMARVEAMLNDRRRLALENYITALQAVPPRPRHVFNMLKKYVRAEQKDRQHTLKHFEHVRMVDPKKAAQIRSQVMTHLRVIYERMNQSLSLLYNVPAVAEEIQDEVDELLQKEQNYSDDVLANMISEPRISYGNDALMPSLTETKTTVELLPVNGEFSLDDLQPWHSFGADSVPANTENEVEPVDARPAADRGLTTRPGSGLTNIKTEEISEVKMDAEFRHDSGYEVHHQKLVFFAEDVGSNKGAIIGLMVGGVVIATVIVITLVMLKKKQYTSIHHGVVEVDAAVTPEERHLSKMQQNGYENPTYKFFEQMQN
- PROTOCOL TEXT: Inhibition constant for aggregates of amyloid beta compared to [125I]IMSB
pKi: −log10 of the molar value.

Recorded pKi, per entry:
1) CN(C)c1ccc(-c2nc3ccc(Br)cc3s2)cc1 :: < 5.52
2) O=C(O)c1cc(/N=N/c2ccc(-c3ccc(/N=N/c4ccc(O)c(C(=O)O)c4)cc3)cc2)ccc1O :: 9.85
3) CN1CCN(c2ccc(-c3nc4ccc(I)cc4s3)cc2)CC1 :: < 5.70
4) CN1CCN(c2ccc(-c3nc4ccc(Br)cc4s3)cc2)CC1 :: < 5.62

Kindly review the next compound as well.
Given item CN(C)c1ccc(-c2nc3ccc(I)cc3s2)cc1 , the value recorded as its pKi is < 5.30

---

- Tested on: Mus musculus
- PROTOCOL TEXT: Biodistribution was measured in mice heart 30 minutes after intravenous injection of [125I]-labeled styrylbenzene.
- Type: ADME, organism-based
- COND: in vivo, 0.5 h
MEASUREMENT NAME: Dose/organ (%)
Give bare numbers, in %.

Recorded Dose/organ, per entry:
1. COc1ccc(/C=C/c2ccc(/C=C/c3ccc(OC)c(C(=O)O)c3)c(I)c2)cc1C(=O)O :: 0.18
2. CN(C)c1ccc(-c2nc3ccc(I)cc3s2)cc1 :: 0.2
3. CN1CCN(c2ccc(-c3nc4ccc(I)cc4s3)cc2)CC1 :: 0.69

Given item O=C(O)c1cc(/C=C/c2ccc(/C=C/c3ccc(O)c(C(=O)O)c3)c(I)c2)ccc1O , the value recorded as its Dose/organ is 0.17

---

- Tested on: Mus musculus
- PROTOCOL TEXT: Biodistribution was measured in mice blood 30 minutes after intravenous injection of [125I]-labeled styrylbenzene.
- Type: ADME, organism-based
- COND: in vivo, 0.5 h
What Dose/organ was measured for each of the following?
Output should be the measured figure followed by the unit it is expressed in.

Recorded Dose/organ, per entry:
1) CN(C)c1ccc(-c2nc3ccc(I)cc3s2)cc1 :: 3.26%
2) O=C(O)c1cc(/C=C/c2ccc(/C=C/c3ccc(O)c(C(=O)O)c3)c(I)c2)ccc1O :: 2.98%
3) COc1ccc(/C=C/c2ccc(/C=C/c3ccc(OC)c(C(=O)O)c3)c(I)c2)cc1C(=O)O :: 5.19%

Kindly review the next compound as well.
Given item CN1CCN(c2ccc(-c3nc4ccc(I)cc4s3)cc2)CC1 , the value recorded as its Dose/organ is 5.15%

---

- System: Mus musculus
- PROTOCOL TEXT: Biodistribution was measured in mice heart 60 minutes after intravenous injection of [125I]-labeled styrylbenzene.
- Assay type: ADME, organism-based
- COND: in vivo, 1 h
What Dose/organ was measured for each of the following?
Answers are plain numbers, in %.

Recorded Dose/organ, per entry:
1) CN(C)c1ccc(-c2nc3ccc(I)cc3s2)cc1 :: 0.17
2) O=C(O)c1cc(/C=C/c2ccc(/C=C/c3ccc(O)c(C(=O)O)c3)c(I)c2)ccc1O :: 0.13
3) COc1ccc(/C=C/c2ccc(/C=C/c3ccc(OC)c(C(=O)O)c3)c(I)c2)cc1C(=O)O :: 0.12

Kindly review the next molecule as well.
Given item CN1CCN(c2ccc(-c3nc4ccc(I)cc4s3)cc2)CC1 , the value recorded as its Dose/organ is 0.66
